Source of measurements: the Immune Epitope Database (IEDB)

target: HLA-A*26:01; test: IEDB peptide-MHC binding, purified MHC/direct/fluorescence; filed as Kd, often an IC50 or EC50 that approximates it; bounds were set here for any values at or beyond the usual limits of such assays; conditions: source organism: Salmonella enterica subsp. enterica serovar Typhimurium
pKd: −log10 of the molar value.
Measured Metric: pKd

May I ask what pKd has been recorded for "FMIDWILDA" ?
≤ 4.70

* * *

target: HLA-A*68:02; experiment: IEDB peptide-MHC binding, purified MHC/competitive/fluorescence; filed as Kd, often an IC50 or EC50 that approximates it; bounds were set here for any values at or beyond the usual limits of such assays; settings: source organism: Cryptosporidium parvum Iowa II
Measured Metric: Kd

Which measured Kd value corresponds to "RGRKPIFRK" ?
≥ 20 µM
